- assay info: Incorporation into clots induced in a rat model (rat inferior vena cava model)
- Assay type: in vivo, rat (Male Wistar)
- details: Aged Clots: injected 60 min post-induction, sacrificed after 60 min
- Experimental: The rats (Male Wistar, 250–350 g) were anaesthetised with 15% urethane. After laparotomy, the vena cava was isolated and freed of surrounding fat tissue. […] The compounds were injected 5 min (fresh clot) and 60 min (aged clot) post-induction. After 60 min the animals were sacrificed and the clot removed, weighed and counted. Other tissues e.g. blood, lung, heart, were also dissected and counted. […]
*1 amine or outer side, *2 acyl side, *3 side chain or, on linkers, in order; H or OH if unused. The star is where a group is joined. Adamantane1carbonyl = O=C(C12CC3CC(CC(C3)C1)C2)*; Fmoc = O=C(OCC1c2ccccc2-c2ccccc21)*; Glutaryl = O=C(CCCC(=O)[*:2])[*:1]
assay readout: % id/g (clot) (% id/g)
Numbers only; they are read as % id/g.

substance	% id/g (clot), % id/g
Ac-NQEQVSP(pBr-F)TLLKG-Pn216 [^99mTc-Cmpd 21]	2.7
Ac-NAEAVSPYTLLKG-Pn216 (also: 99mTc complex) [^99mTc-Cmpd 14]	0.6
Ac-NQEQVSPYTLLKG-NH2 [^123I-Cmpd 2]	5.5
Ac-(D-N)QEQVSP(D-Y)TLL(D-K)G-Pn216 [^99mTc-Cmpd 32]	0.7
Ac-LGPGQSKVIG-Pn44 (also: 99mTc complex) [^99mTc-Cmpd 45]	2.0

Would you mind telling me what % id/g (clot) value was observed for Ac-N—CH2NH2-QEQVSP(D-Y)TLL(D-K)G-Pn216 [^99mTc-Cmpd 34] ?
0.4

Form field: reported % id/g (clot) of Ac-LEFDTQSKNILG-Pn216 (also: 99mTc complex) [^99mTc-Cmpd 47]
0.5

Bench note: what % id/g (clot) did Fmoc-NQEQVSPYTLLKG-Pn216 (also: 99mTc complex) [^99mTc-Cmpd 9] show?
3.7

Which measured % id/g (clot) value corresponds to Ac-NQEQVSP(D-Y)TLL(D-K)βAla-Pn216 [^99mTc-Cmpd 33] ?
2.2

Entry under review: Ac-NQEQVG-Pn44 [^99mTc-Cmpd 17] . Reported % id/g (clot)?
0.8

Which % id/g (clot) value is on record for Ac-NQEQVSPLTLLKG-Pn216 (also: 99mTc complex) [^99mTc-Cmpd 19] ?
3.2

Could you tell me which % id/g (clot) is on file for Ac-NQEQVSP-Nal(2)-TLLKG-Pn216 [^99mTc-Cmpd 20] ?
1.7

Quick one: % id/g (clot) of Pn44-CO(CH2)3CO-NQEQVSPYTLLKG-NH2 ({Pn44-Glutaryl}-NQEQVSPYTLLKG-NH2; also: 99mTc complex) [^99mTc-Cmpd 38] ?
0.8

For the substance shown here, Ac-GQDPVKG-Pn216 (also: 99mTc complex) [^99mTc-Cmpd 48] , give the reported % id/g (clot).
0.2

Item Ac-NQEQVSPYTLLKG-(PEG)10k-Pn216 (Ac-NQEQVSPYTLLKG-{PEG 10k-Pn216}; also: 99mTc complex) [^99mTc-Cmpd 41] has what recorded % id/g (clot)?
0.4

Quick one: % id/g (clot) of Ac-NQEQVSPYTLLKG-Pn44 (also: 99mTc complex) [^99mTc-Cmpd 3] ?
2.1

// lookup % id/g (clot) for Adamantoyl-NQEQVSPYTLLKG-Pn216 (Adamantane1carbonyl-NQEQVSPYTLLKG-Pn216; also: 99mTc complex) [^99mTc-Cmpd 11]
0.4

Would you mind telling me what % id/g (clot) value was observed for Ac-NQEAVSPYTLLKG-Pn44 (also: 99mTc complex) [^99mTc-Cmpd 12] ?
4.1
